B1: library; a variant is named by its letters at N, in order (parent)
chain: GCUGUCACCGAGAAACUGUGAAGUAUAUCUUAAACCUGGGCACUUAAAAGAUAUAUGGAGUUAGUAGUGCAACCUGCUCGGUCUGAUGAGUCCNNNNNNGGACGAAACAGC

# Variants of: B1
# EXPERIMENT SUMMARY: normalized RNA/DNA level with ligand (relative to sTRSVctl = 100) (log10 (% of sTRSVctl)); HEK293T; ligand: cyclic di-GMP (c-di-GMP-II aptamer); ligand concentration (+) RNA-Seq: 1 mM; higher = less ribozyme self-cleavage, higher mRNA level
# PROTOCOL CONDITIONS: reporter: mCherry (pCS4076), ligand present: yes
EXPERIMENTAL ENDPOINT: normalized RNA/DNA level with ligand (log10)
Number, no unit, nothing else.

GCUGUCACCGAGAAACUGUGAAGUAUAUCUUAAACCUGGGCACUUAAAAGAUAUAUGGAGUUAGUAGUGCAACCUGCUCGGUCUGAUGAGUCCGGGUCAGGACGAAACAGC [GGGUCA]
1.91

Ask | Reported normalized RNA/DNA level with ligand (log10), variant GCUGUCACCGAGAAACUGUGAAGUAUAUCUUAAACCUGGGCACUUAAAAGAUAUAUGGAGUUAGUAGUGCAACCUGCUCGGUCUGAUGAGUCCAAAAAGGGACGAAACAGC [AAAAAG] : ____
Reply | 1.66

Ask | Reported normalized RNA/DNA level with ligand (log10), variant GCUGUCACCGAGAAACUGUGAAGUAUAUCUUAAACCUGGGCACUUAAAAGAUAUAUGGAGUUAGUAGUGCAACCUGCUCGGUCUGAUGAGUCCAAACUGGGACGAAACAGC [AAACUG] : ____
Reply | 1.75

Ask | Reported normalized RNA/DNA level with ligand (log10), variant GCUGUCACCGAGAAACUGUGAAGUAUAUCUUAAACCUGGGCACUUAAAAGAUAUAUGGAGUUAGUAGUGCAACCUGCUCGGUCUGAUGAGUCCCCAUACGGACGAAACAGC [CCAUAC] : ____
Reply | 1.78

Ask | Reported normalized RNA/DNA level with ligand (log10), variant GCUGUCACCGAGAAACUGUGAAGUAUAUCUUAAACCUGGGCACUUAAAAGAUAUAUGGAGUUAGUAGUGCAACCUGCUCGGUCUGAUGAGUCCUUUGUUGGACGAAACAGC [UUUGUU] : ____
Reply | 1.86

Ask | Reported normalized RNA/DNA level with ligand (log10), variant GCUGUCACCGAGAAACUGUGAAGUAUAUCUUAAACCUGGGCACUUAAAAGAUAUAUGGAGUUAGUAGUGCAACCUGCUCGGUCUGAUGAGUCCGGUGAUGGACGAAACAGC [GGUGAU] : ____
Reply | 1.76

Ask | Reported normalized RNA/DNA level with ligand (log10), variant GCUGUCACCGAGAAACUGUGAAGUAUAUCUUAAACCUGGGCACUUAAAAGAUAUAUGGAGUUAGUAGUGCAACCUGCUCGGUCUGAUGAGUCCUCUUAGGGACGAAACAGC [UCUUAG] : ____
Reply | 1.8

Ask | Reported normalized RNA/DNA level with ligand (log10), variant GCUGUCACCGAGAAACUGUGAAGUAUAUCUUAAACCUGGGCACUUAAAAGAUAUAUGGAGUUAGUAGUGCAACCUGCUCGGUCUGAUGAGUCCAUGGUUGGACGAAACAGC [AUGGUU] : ____
Reply | 1.68
